B1: PTPRD (parent)
chain: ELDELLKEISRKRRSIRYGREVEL

Variants of: B1
Test: protein stability index of a GFP-peptide fusion (GPS, HEK-293T) (PSI 1-6); higher = more stable;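 further: lentivirally expressed fusions sorted by FACS into six bins by GFP to DsRed ratio, PSI derived from sequencing read proportions per bin multiplied by bin number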
Details: c terminus: a fixed tail appended

{"columns": ["VARIANT DESCRIPTOR", "protein stability index"],
 "data": [
  ["L6F", 2.07],
  ["I9R", 3.72],
  ["R17Q", 2.68],
  ["E1F", 1.83],
  ["L5R", 3.18],
  ["L2D", 4.14],
  ["K12W", 1.66],
  ["L5P", 3.82],
  ["R17M", 2.12],
  ["R13N", 3],
  ["R14W", 1.73],
  ["R14H", 2.92],
  ["L6M", 2.68],
  ["I9D", 3.98],
  ["S10E", 2.84],
  ["D3R", 1.86],
  ["E21D", 1.79],
  ["E21T", 3.01],
  ["I16E", 3.62],
  ["I16W", 1.8],
  ["I9S", 3.62],
  ["R14E", 2.73],
  ["R14Y", 1.66],
  ["I9A", 3.14],
  ["Y18M", 2.22],
  ["K7Q", 2.46],
  ["E1M", 2.73],
  ["R13A", 2.38],
  ["G19E", 2.71],
  ["R11Q", 2.55],
  ["L2C", 3.06],
  ["L2Q", 4.26],
  ["D3S", 2.57],
  ["R13D", 4.49],
  ["L2A", 3.79],
  ["I9C", 2.54],
  ["E8K", 3.79],
  ["R20T", 2.45],
  ["L6K", 3.92],
  ["G19K", 2.06],
  ["E1L", 1.98],
  ["E23T", 2.34],
  ["V22L", 2.14],
  ["K7V", 2.07],
  ["L6D", 4.29],
  ["L24F", 2.55]
]}
